Data provenance is patent US20240391954A1.

# testSystem: human MC4R receptor (human, UniProt P32245 1-332)
# Sequence (P32245 whole entry): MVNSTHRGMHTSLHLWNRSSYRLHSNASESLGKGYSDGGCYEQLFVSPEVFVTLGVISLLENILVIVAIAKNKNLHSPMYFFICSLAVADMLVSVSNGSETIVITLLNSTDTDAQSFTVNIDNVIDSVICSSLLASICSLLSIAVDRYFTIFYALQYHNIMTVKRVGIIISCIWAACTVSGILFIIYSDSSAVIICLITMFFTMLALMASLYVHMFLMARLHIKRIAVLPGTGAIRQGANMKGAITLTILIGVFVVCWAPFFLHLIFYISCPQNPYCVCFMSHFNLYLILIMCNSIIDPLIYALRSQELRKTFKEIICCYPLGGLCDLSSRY
# procedureDetails: cell-based or functional assay
Positions of bridges follow the written chain, without caps; N, C: chain ends. Non-standard residues stand in square brackets, D forms with d. Aib = CC(C)(N)C(=O)O
Could you please report measured MC4R selectivity vs MC3R for the items listed next?
The response must contain the number and no unit.

# input // lookup MC4R selectivity vs MC3R for {CH2CO}-[dA]H[dF]RFC-NH2 (thioether N-6; SMILES C[C@H]1NC(=O)CSC[C@@H](C(N)=O)NC(=O)[C@H](Cc2ccccc2)NC(=O)[C@H](CCCNC(=N)N)NC(=O)[C@@H](Cc2ccccc2)NC(=O)[C@H](Cc2c[nH]cn2)NC1=O) [CTX-1656]
# output 1.64

# input // lookup MC4R selectivity vs MC3R for {CH2CO}-[Aib]H[dF]RWC-NH2 (thioether N-6; SMILES CC1(C)NC(=O)CSC[C@@H](C(N)=O)NC(=O)[C@H](Cc2c[nH]c3ccccc23)NC(=O)[C@H](CCCNC(=N)N)NC(=O)[C@@H](Cc2ccccc2)NC(=O)[C@H](Cc2c[nH]cn2)NC1=O) [CTX-1647]
# output 30

# input // lookup MC4R selectivity vs MC3R for {CH2CO}-GR[dF]RFC-NH2 (thioether N-6; SMILES N=C(N)NCCC[C@@H]1NC(=O)CNC(=O)CSC[C@@H](C(N)=O)NC(=O)[C@H](Cc2ccccc2)NC(=O)[C@H](CCCNC(=N)N)NC(=O)[C@@H](Cc2ccccc2)NC1=O) [CTX-1654]
# output 5.41

# input // lookup MC4R selectivity vs MC3R for Ac-RC[Aib]R[dF]RWC-NH2 (disulfide 2-8) [CTX-1292]
# output 21
